PARAMETER MEASURED: melting point (°C)
Quick reminder: number only, in °C, skip the unit.

{"COMPOUND": "Cc1ccc(Cn2nc(C(=O)O)cc2-c2ccc(Cl)c(C)c2)cc1", "melting point / °C": 180}

Kindly review the next compound as well.
q: Dear colleague, I am looking for the recorded melting point of the following compound: Cc1ccc(S(=O)(=O)N2[C@@H](CCc3nc(C)no3)CC[C@H]2c2ccc(F)cc2)cc1 (racemic)
a: 91

* * *

PARAMETER MEASURED: melting point

// worked examples, melting point included
{"COMPOUND": "Cc1c(Br)ccc(S(C)(=O)=O)c1S(C)(=O)=O", "MEASURED": "169 to 171 °C"}
{"COMPOUND": "N#Cc1ccc(CCl)cn1", "MEASURED": "45 to 47 °C"}
{"COMPOUND": "COc1ccc(C(=O)N2c3ccccc3[C@H](N(C)c3ccccc3)C[C@@H]2C)cc1OC (relative stereo)", "MEASURED": "180 to 181 °C"}
{"COMPOUND": "COc1cc(CNC(=O)c2nc3scc(COCc4ccc(C(=O)O)cc4)c3c(=O)[nH]2)ccc1F", "MEASURED": "225 to 226 °C"}
{"COMPOUND": "COC(=O)[C@@H]1C[C@H](C(=O)O)Nc2cc(Cl)c(Cl)c(Cl)c21 (relative stereo)", "MEASURED": "210 °C"}

q: Dear colleague, I am looking for the recorded melting point of the following compound: COCCOc1ccc(CCC(=O)NS(=O)(=O)c2ccc(F)cc2)c(Oc2ncc(C(F)(F)F)cc2Cl)c1
a: 136 to 138 °C

q: Dear colleague, I am looking for the recorded melting point of the following compound: OCC1OC(n2cnc3c(NCCc4csc5ccccc45)ncnc32)C(O)C1O (centres undefined)
a: 173 to 174 °C

q: Dear colleague, I am looking for the recorded melting point of the following compound: CC(C)CC1(C(CCN2C(=O)c3ccccc3C2=O)C(=O)NO)CCN(CCc2ccccc2)C1=O (centres undefined)
a: 102 to 105 °C

q: Dear colleague, I am looking for the recorded melting point of the following compound: CCCCCCCCCC(O)P(=O)(O)O (centres undefined)
a: 164 °C

* * *

melting point values for the molecules below.

// worked examples, melting point included
{"MOLECULE": "NC(=S)Nc1ccccc1-c1ccccc1F", "PARAMETER MEASURED": "melting point", "MEASURED": "175 to 177 °C"}
{"MOLECULE": "CCCc1nn(-c2ccc(C(F)(F)F)cn2)cc1CCCCOc1cccc(CC(=O)O)c1", "PARAMETER MEASURED": "melting point", "MEASURED": "96 to 97 °C"}
{"MOLECULE": "CC(CS)C(=O)N1CCCC1C(=O)NC(C)C(=O)O (stereo not given)", "PARAMETER MEASURED": "melting point", "MEASURED": "128 to 130 °C"}
{"MOLECULE": "c1ccc2c(c1)nnn2CSCn1nnc2ccccc21", "PARAMETER MEASURED": "melting point", "MEASURED": "179 to 181 °C"}
{"MOLECULE": "O=C1OC(CCI)C(O)=C1OCc1ccccc1 (stereo not given)", "PARAMETER MEASURED": "melting point", "MEASURED": "101 to 104 °C"}
{"MOLECULE": "CC(C)(C)c1ccc(C(=O)Nc2cn3nc(NC4CCCC4)ccc3n2)cc1", "PARAMETER MEASURED": "melting point", "MEASURED": "272 to 273 °C"}
{"MOLECULE": "CCOC(=O)c1nc(NCC(c2ccccc2)c2ccccc2)c2nc[nH]c2n1", "PARAMETER MEASURED": "melting point", "MEASURED": "> 200 °C"}
{"MOLECULE": "O=CNc1cc(-c2ccc(Cl)cc2)n[nH]1", "PARAMETER MEASURED": "melting point", "MEASURED": "151 °C"}
{"MOLECULE": "CCOC(=O)C1CCCCN1C(=O)/C=C/c1ccc(Sc2ccc3c(c2)OCCO3)c([N+](=O)[O-])c1 (stereo not given)", "PARAMETER MEASURED": "melting point", "MEASURED": "74 to 75 °C"}

Kindly review the next molecule as well.
q: Dear colleague, I am looking for the recorded melting point of the following molecule: O=C1NNC(c2ccc3c(c2)CC2(CCN(C4CCC4)CC2)O3)C2C=C12 (stereo not given)
a: 189 to 191 °C
